- Target or system: Serine/threonine-protein kinase B-raf (Homo sapiens);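 further: mean percent inhibition of BRAF kinase activity, from the GSK PKIS kinase inhibitor screening set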
- Protocol conditions: at 0.1 µM
Experimental endpoint: inhibition (%)
Numbers only; they are read as %.

These solved cases illustrate the format of a correct answer.
COc1cc2ncn(-c3cc(OCc4ccccc4Cl)c(C(N)=O)s3)c2cc1OC: 2.05
CCCN1CCC=C(c2ccc(Nc3nc(Nc4ccccc4C(N)=O)c4cc[nH]c4n3)c(C)c2)C1: 8.31
NS(=O)(=O)c1ccc(N/N=C2\C(=O)Nc3ccc(C(=O)NCCc4c[nH]cn4)cc32)cc1: 7

## Task What value of measured inhibition is listed for CCn1c(-c2nonc2N)nc2c(N3CCCC3)nccc21 ?
## Result 0.2

## Task # query: inhibition of entry CCCN1CCC(Oc2cc(Nc3nc(Nc4cccc(F)c4C(N)=O)c4cc[nH]c4n3)c(OC)cc2Cl)CC1
## Result 2.31

## Task Consider the compound shown here: N#Cc1c(NC(=O)c2cccc3ccccc23)sc2c1CCCC2 What is its recorded inhibition?
## Result 4.29

## Task Please report the recorded inhibition for COc1cc(C)c(NC(=O)CN(C)C)cc1Nc1nc(Nc2cccc(F)c2C(N)=O)c2cc[nH]c2n1 .
## Result 2.75

## Task Dear colleague, I am looking for the recorded inhibition of the following compound: Cc1nnc(-c2ccc(C)c(-c3ccc(C(=O)Nc4cccc(C#N)c4)cc3)c2)o1
## Result 3.86

## Task Endpoint output: inhibition of COc1ccc(-c2coc3ncnc(N)c23)cc1 . Value?
## Result 4.66

## Task Recorded inhibition for CN(C)c1cc2c(Nc3ccc4nc(Cc5ccccc5)[nH]c4c3)ncnc2cn1 , please?
## Result 7.82

* * *

- Target or system: Muscle, skeletal receptor tyrosine-protein kinase (Homo sapiens);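 further: reported value is the mean percent inhibition of MuSK kinase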
- Protocol conditions: at 1 µM
Listed next: entries and their corresponding inhibition.
Please state the figure in %; there is no need to write the unit.

Cc1nnc(-c2ccc(C)c(-c3ccc(C(=O)Nc4cccc(C#N)c4)cc3)c2)o1: 2.91
Cc1ccc(C(=O)NC2CCCCC2)cc1-c1ccc(C(=O)NCC2CC2)cc1: 8.57
NS(=O)(=O)c1cccc(-c2ccc3c(NC(=O)C4CC4)n[nH]c3c2)c1: 4.13
COc1ccc(-c2nn3ncccc3c2-c2ccnc(Nc3ccc(Cl)c(C(F)(F)F)c3)n2)cc1: 1.1
N#Cc1c(NC(=O)c2cccc3ccccc23)sc2c1CCCC2: 4.97
Cc1cc(O)cc(C)c1/C=C/c1cncc(-c2nn[nH]n2)c1: 2.94
CC1=C(C(=O)Nc2ccc3[nH]ncc3c2)C(c2ccc(F)cc2)NC(=O)N1 (stereo not given): 5.88
CC(C)=Cc1cccc2c1/C(=N/Nc1ccc(S(N)(=O)=O)cc1)C(=O)N2: 36.3
Nc1ncnc2occ(-c3ccc(NC(=O)Nc4cc(C(F)(F)F)cc(C(F)(F)F)c4)cc3)c12: 89.3
COc1ccc(-c2ccncc2)cc1C(N)=O: 8.58

## Task What value of inhibition on Muscle, skeletal receptor tyrosine-protein kinase (Homo sapiens) does CCn1c(-c2nonc2N)nc2cncc(C(=O)N3CCNCC3)c21 have?
## Result 4.88

## Task Lookup: inhibition / Muscle, skeletal receptor tyrosine-protein kinase (Homo sapiens) / Fc1cccc(COc2ccc(Nc3ncnc4cc(-c5ccc[nH]5)sc34)cc2Cl)c1
## Result 6.25

* * *

- Target or system: Mitogen-activated protein kinase 11 (Homo sapiens) (UniProt Q15759);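 further: values are mean percent inhibition of p38beta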
- Sequence (Q15759 whole entry): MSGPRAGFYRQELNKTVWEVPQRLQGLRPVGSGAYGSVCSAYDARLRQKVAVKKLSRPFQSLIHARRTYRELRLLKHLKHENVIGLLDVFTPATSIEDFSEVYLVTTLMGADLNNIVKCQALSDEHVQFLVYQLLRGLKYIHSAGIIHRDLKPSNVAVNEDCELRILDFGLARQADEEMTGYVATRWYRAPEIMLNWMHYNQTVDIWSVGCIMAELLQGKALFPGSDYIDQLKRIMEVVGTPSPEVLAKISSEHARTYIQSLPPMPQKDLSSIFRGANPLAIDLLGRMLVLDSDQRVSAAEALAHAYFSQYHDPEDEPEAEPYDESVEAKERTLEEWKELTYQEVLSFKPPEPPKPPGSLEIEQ
- Protocol conditions: at 1 µM
Lab note: compare inhibition against 4%. Equal or greater, write true (1). Smaller, write false (0).

Worked set:
COc1ccc2cc(-c3c(-c4ccncc4)nc(-c4ccc([S+](C)[O-])cc4)n3C)ccc2c1 (stereo not given): true (1)
COc1cc(C=NNc2ncnc3c2cnn3-c2ccccc2)ccc1O: true (1)
NC(=O)c1cccc(Nc2nccc(Nc3cccc4[nH]ncc34)n2)c1: false (0)

## Task Decide: is the reported value of inhibition for CC1=C(C(=O)Nc2ccc3[nH]ncc3c2)C(c2ccc(F)cc2)NC(=O)N1 (stereo not given) equal to or greater than 4%?
## Result false (0)

## Task hey, is inhibition for this one >= 4%? Nc1ncnc2occ(-c3ccc(NC(=O)Nc4cc(C(F)(F)F)cc(C(F)(F)F)c4)cc3)c12
## Result true (1)
